# system name: Cytoplasmic tyrosine-protein kinase BMX (Homo sapiens, UniProt P51813)
# Sequence (P51813 whole entry): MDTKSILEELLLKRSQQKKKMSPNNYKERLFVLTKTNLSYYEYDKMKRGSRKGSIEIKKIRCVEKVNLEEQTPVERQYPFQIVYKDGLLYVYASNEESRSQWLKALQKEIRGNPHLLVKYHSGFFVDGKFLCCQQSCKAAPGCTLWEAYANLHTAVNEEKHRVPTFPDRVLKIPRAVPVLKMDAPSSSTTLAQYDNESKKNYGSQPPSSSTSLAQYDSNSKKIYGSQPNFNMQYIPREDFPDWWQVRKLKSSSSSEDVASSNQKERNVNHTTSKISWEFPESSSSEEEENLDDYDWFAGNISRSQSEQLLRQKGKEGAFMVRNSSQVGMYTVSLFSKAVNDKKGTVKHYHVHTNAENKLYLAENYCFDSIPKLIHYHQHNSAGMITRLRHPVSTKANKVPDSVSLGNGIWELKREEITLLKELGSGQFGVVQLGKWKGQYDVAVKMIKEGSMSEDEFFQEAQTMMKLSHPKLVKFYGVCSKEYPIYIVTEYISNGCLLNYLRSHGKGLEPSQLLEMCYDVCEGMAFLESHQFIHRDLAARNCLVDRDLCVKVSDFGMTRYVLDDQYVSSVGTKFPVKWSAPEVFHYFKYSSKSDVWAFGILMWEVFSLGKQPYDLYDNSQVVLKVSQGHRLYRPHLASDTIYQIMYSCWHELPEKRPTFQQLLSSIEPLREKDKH
# assay overview: Inhibition of recombinant human full length BMX using poly(Glu, Tyr) 4:1 as substrate incubated for 40 mins in presence of [gamma33P]ATP by scintillation counting method
assay readout: pIC50
Reminder that pIC50 means the negative base-10 logarithm of the concentration expressed in mol/L.

In one line, give reported pIC50 of the entry `C=CC(=O)N1CC[C@@H](NC(=O)c2sc3nccc4c3c2NC(=O)N4c2ccc(Oc3ccccc3)cc2C)C1` .
6.89

----------
# assay overview: Half life in human pooled liver microsomes at 1 uM measured up to 60 mins in presence of NADPH by LC-MS/MS analysis
# Type: ADME, Microsome
assay readout: half-life at 1 µM

In one line, give reported half-life at 1 µM of the entry C=CC(=O)N1CCC[C@@H](NC(=O)c2sc3nccc4c3c2NC(=O)N4c2ccc(Oc3ccccc3)cc2C)C1 (stereo in doubt; 17) .
< 4 min

----------
# system name: Tyrosine-protein kinase BTK (Homo sapiens)
# assay overview: Covalent inhibition of recombinant human GST-tagged BTK (2 to 659 end residues) expressed in baculovirus expression system assessed as inactivation constant using NH2-KKKAPFSWYLPEEG as substrate measured every 2 mins for 2 hrs in presence of ATP by microplate reader assay
Mark each entry 1 (yes) if its Kinact sits below 0.0003 s⁻¹, and 0 (no) for all others.

Below 0.0003 s⁻¹ on Kinact? Entry `C=CC(=O)N1CCC[C@@H](NC(=O)c2sc3nccc4c3c2NC(=O)N4c2ccc(Oc3ccccc3)cc2C(F)(F)F)C1`
1 (yes)

Below 0.0003 s⁻¹ on Kinact? Entry `C=CC(=O)N1CCC[C@@H](NC(=O)c2sc3nccc4c3c2NC(=O)N4c2ccccc2)C1`
0 (no)

Below 0.0003 s⁻¹ on Kinact? Entry `C=CC(=O)N[C@H]1CCC[C@H]1NC(=O)c1sc2nccc3c2c1NC(=O)N3c1ccc(Oc2ccccc2)cc1C`
1 (yes)

Below 0.0003 s⁻¹ on Kinact? Entry `C=CC(=O)N1CCC[C@@H](NC(=O)c2sc3nccc4c3c2NC(=O)N4c2ccc(OC(C)C)cc2)C1`
1 (yes)

Below 0.0003 s⁻¹ on Kinact? Entry `C=CC(=O)N1CCC[C@@H](NC(=O)c2sc3nccc4c3c2NC(=O)N4c2cc(OC(C)C)ccc2C)C1`
1 (yes)

Below 0.0003 s⁻¹ on Kinact? Entry `C=CC(=O)N1CCC[C@@H](NC(=O)c2sc3nccc4c3c2NC(=O)N4c2ccccc2C)C1`
0 (no)

----------
# assay overview: Volume of distribution at steady state in Sprague-Dawley rat at 5 mg/kg, po or 1 mg/kg, iv measured upto 24 hrs by LC-MS/MS analysis
# Format: ADME, organism-based
# test context: in vivo, read-out: Vdss
assay readout: Vd
I'd appreciate it if you wrote the number followed by its unit.

In one line, give reported Vd of the entry `C=CC(=O)N1CC[C@@H](NC(=O)c2sc3nccc4c3c2NC(=O)N4c2ccc(Oc3ccccc3)cc2C)C1` .
1 L/kg

----------
So I've got a bunch of compounds here, and I need their pKi values.
# system name: Tyrosine-protein kinase BTK (Homo sapiens, UniProt Q06187)
# Sequence (Q06187 whole entry): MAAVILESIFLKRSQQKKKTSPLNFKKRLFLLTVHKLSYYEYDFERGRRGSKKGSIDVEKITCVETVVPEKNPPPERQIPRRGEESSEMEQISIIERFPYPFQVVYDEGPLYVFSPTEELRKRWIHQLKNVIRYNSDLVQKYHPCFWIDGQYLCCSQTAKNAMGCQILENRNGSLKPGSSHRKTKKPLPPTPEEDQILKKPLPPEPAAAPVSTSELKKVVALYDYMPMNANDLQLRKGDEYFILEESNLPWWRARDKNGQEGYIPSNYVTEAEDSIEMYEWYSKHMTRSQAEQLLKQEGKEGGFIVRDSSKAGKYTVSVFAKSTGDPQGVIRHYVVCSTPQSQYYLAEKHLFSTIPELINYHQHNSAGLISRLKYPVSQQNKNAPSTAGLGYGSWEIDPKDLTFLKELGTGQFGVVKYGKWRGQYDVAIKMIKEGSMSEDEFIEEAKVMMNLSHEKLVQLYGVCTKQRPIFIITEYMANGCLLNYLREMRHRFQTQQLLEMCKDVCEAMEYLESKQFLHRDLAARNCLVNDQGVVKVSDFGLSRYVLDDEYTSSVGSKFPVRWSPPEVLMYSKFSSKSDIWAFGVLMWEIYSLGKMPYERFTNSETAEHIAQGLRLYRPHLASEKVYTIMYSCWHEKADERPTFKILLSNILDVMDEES
# assay overview: Covalent inhibition of recombinant human GST-tagged BTK (2 to 659 end residues) expressed in baculovirus expression system assessed as inhibition constant using NH2-KKKAPFSWYLPEEG as substrate measured every 2 mins for 2 hrs in presence of ATP by microplate reader assay
Reminder that pKi means the negative base-10 logarithm of the concentration expressed in mol/L.

In one line, give reported pKi of the entry `C=CC(=O)N1CC(NC(=O)c2sc3nccc4c3c2NC(=O)N4c2ccc(Oc3ccccc3)cc2C)C1` .
6.85

In one line, give reported pKi of the entry C=CC(=O)N1CCC[C@@H](NC(=O)c2sc3nccc4c3c2NC(=O)N4c2ccc(Oc3ccccc3)cc2C)C1 (stereo in doubt; 17) .
8.32

In one line, give reported pKi of the entry `C=CC(=O)N1CCC[C@@H](NC(=O)c2sc3nccc4c3c2NC(=O)N4c2ccc(Oc3ccccc3)cc2F)C1` .
8.04

In one line, give reported pKi of the entry `C=CC(=O)N[C@H]1CCC[C@H]1NC(=O)c1sc2nccc3c2c1NC(=O)N3c1ccc(Oc2ccccc2)cc1C` .
7.83

In one line, give reported pKi of the entry `C=CC(=O)N1CCC[C@@H](NC(=O)c2sc3nccc4c3c2NC(=O)N4c2ccc(OC(C)C)cc2)C1` .
5.37

In one line, give reported pKi of the entry `C=CC(=O)N1CCC[C@@H](NC(=O)c2sc3nccc4c3c2NC(=O)N4c2ccc(Oc3ccccc3)cc2C(F)(F)F)C1` .
5.73

In one line, give reported pKi of the entry `C=CC(=O)N1CC[C@H](NC(=O)c2sc3nccc4c3c2NC(=O)N4c2ccc(Oc3ccccc3)cc2C)C1` .
6.66

In one line, give reported pKi of the entry `C=CC(=O)C[C@@H]1CC[C@@H](NC(=O)c2sc3nccc4c3c2NC(=O)N4c2ccc(Oc3ccccc3)cc2C)C1` .
7.93

In one line, give reported pKi of the entry `C=CC(=O)N1CCC[C@@H](NC(=O)c2sc3nccc4c3c2NC(=O)N4c2ccc(Oc3ccccc3)cc2Cl)C1` .
7.91

In one line, give reported pKi of the entry C=CC(=O)N1CCC[C@@H](NC(=O)c2sc3nccc4c3c2NC(=O)N4c2ccc(Oc3ccccc3)cc2C)C1 (stereo in doubt; 16) .
6.82

In one line, give reported pKi of the entry `C=CC(=O)NCCNC(=O)c1sc2nccc3c2c1NC(=O)N3c1ccc(Oc2ccccc2)cc1C` .
7.28

In one line, give reported pKi of the entry `C=CC(=O)N1CCC[C@@H](NC(=O)c2sc3nccc4c3c2NC(=O)N4c2ccccc2C)C1` .
5.80

In one line, give reported pKi of the entry `C=CC(=O)N1CCC[C@@H](NC(=O)c2sc3nccc4c3c2NC(=O)N4c2ccccc2)C1` .
5.19

In one line, give reported pKi of the entry `C=CC(=O)N1CCC[C@@H](NC(=O)c2sc3nccc4c3c2NC(=O)N4c2cc(OC(C)C)ccc2C)C1` .
5.48

In one line, give reported pKi of the entry `C=CC(=O)N1CCC[C@@H](NC(=O)c2sc3nccc4c3c2NC(=O)N4c2ccc(OC(C)C)cc2C)C1` .
6.47
